- system.under.test: human mAChR M1 (Homo sapiens, UniProt P11229)
- Sequence (P11229 whole entry): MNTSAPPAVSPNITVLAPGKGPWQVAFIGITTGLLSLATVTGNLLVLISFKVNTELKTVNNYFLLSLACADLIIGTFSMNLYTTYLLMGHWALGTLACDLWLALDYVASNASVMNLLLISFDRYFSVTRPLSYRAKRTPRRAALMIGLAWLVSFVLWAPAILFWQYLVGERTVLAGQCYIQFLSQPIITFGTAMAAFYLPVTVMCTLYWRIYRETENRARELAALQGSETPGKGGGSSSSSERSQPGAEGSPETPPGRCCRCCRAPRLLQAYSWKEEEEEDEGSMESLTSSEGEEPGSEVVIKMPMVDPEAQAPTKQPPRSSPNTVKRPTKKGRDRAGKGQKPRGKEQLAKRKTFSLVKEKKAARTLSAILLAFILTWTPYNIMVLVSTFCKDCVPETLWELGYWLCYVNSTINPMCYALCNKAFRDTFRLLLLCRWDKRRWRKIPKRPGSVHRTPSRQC
- protocol: mAChR M1 cell-based functional assay: calcium mobilization, positive allosteric modulator mode (increase in EC20 acetylcholine response)
- condition.context: Table 2; human M1; read-out: Human M1 Emax (%)
property.measured: Emax (%)

# annotated cases, reported Emax shown
CC1(C)CC(NC(=O)c2cc(Cc3ccc(-c4nccs4)cc3)c3sccc3n2)CCO1 (centres unmarked)
84.2
O=C(N[C@H]1CCCCC[C@@H]1O)c1cc(Cc2ccc(-c3cscn3)cc2)c2sccc2n1
73
Cn1ncc2nc(C(=O)NC3CC4(COC4)C3)cc(Cc3ccc(-n4cccn4)cc3)c21
63.1
O=C(N[C@@H]1CC[C@H]1O)c1cc(Cc2ccc(-c3cscn3)cc2)c2sccc2n1
89.4
O=C(NC1CCOCC1)c1cc(C(F)c2ccc(-c3cscn3)cc2)c2sccc2n1 (centres unmarked)
69

1. O=C(NC1CCCCNC1=O)c1cc(Cc2ccc(C(F)(F)F)nc2)c2sccc2n1 (centres unmarked)
2. Cc1nn(C)cc1-c1ccc(Cc2cc(C(=O)N[C@H]3COCC[C@@H]3O)nc3ccsc23)cc1
// query Endpoint returns whichever of 1 and 2 has the numerically higher Emax. Use the label to indicate which entry you chose.
// result 1
(1: 66.6%, 2: 42.1%)

Values from patent US11111251B2
